# Target Desc: T1, RBFOX1 RRM (Homo sapiens, UniProt Q9NWB1 109-208)
# T1 sequence: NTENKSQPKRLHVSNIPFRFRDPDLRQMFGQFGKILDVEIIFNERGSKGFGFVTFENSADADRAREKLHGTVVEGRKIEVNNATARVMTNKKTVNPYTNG
# Assay Name: EMSA; HiTS-Eq, 1 nM pool, 10 min; buffer printed only for the single-RNA assays: 10 mM Tris pH 7.5, 150 mM NaCl, 3.4 mM EDTA, 0.001% NP-40, 30 C
# Test Settings: tags: His6 N-terminal (pET28a); label: 5' 32P
Whole data set: some 16,000 sequences, median “ka relative to ugcaugu” near 0.0091, cut for the highest 2% near 0.032. This excerpt belongs to a sample that is enriched for the highest values.
Assay Endpoint: binding signal

Solved entries (count: 5):
[
  {
    "Binder": "GGUCAGA (DNA:RNA) RNA: GGGAGACCGGAAUUCAGAUUGUCCGGUCAGAUUAAAUCCCGUCGUAGCCACCA DNA 1: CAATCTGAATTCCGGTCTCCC DNA 2: TGGTGGCTACGACGGGATT",
    "binding signal": "0.00171 KA relative to UGCAUGU"
  },
  {
    "Binder": "AAACUUG (DNA:RNA) RNA: GGGAGACCGGAAUUCAGAUUGUCCAAACUUGUUAAAUCCCGUCGUAGCCACCA DNA 1: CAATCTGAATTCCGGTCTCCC DNA 2: TGGTGGCTACGACGGGATT",
    "binding signal": "0.0047 KA relative to UGCAUGU"
  },
  {
    "Binder": "GCUUGAU (DNA:RNA) RNA: GGGAGACCGGAAUUCAGAUUGUCCGCUUGAUUUAAAUCCCGUCGUAGCCACCA DNA 1: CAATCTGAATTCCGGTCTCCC DNA 2: TGGTGGCTACGACGGGATT",
    "binding signal": "0.0264 KA relative to UGCAUGU"
  },
  {
    "Binder": "GUCUUAG (DNA:RNA) RNA: GGGAGACCGGAAUUCAGAUUGUCCGUCUUAGUUAAAUCCCGUCGUAGCCACCA DNA 1: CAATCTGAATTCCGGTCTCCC DNA 2: TGGTGGCTACGACGGGATT",
    "binding signal": "0.0121 KA relative to UGCAUGU"
  },
  {
    "Binder": "GCGAAUA (DNA:RNA) RNA: GGGAGACCGGAAUUCAGAUUGUCCGCGAAUAUUAAAUCCCGUCGUAGCCACCA DNA 1: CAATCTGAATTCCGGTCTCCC DNA 2: TGGTGGCTACGACGGGATT",
    "binding signal": "0.0051 KA relative to UGCAUGU"
  }
]

So what's the measured binding signal for this one? UUUUCUC (DNA:RNA) RNA: GGGAGACCGGAAUUCAGAUUGUCCUUUUCUCUUAAAUCCCGUCGUAGCCACCA DNA 1: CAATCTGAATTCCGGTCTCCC DNA 2: TGGTGGCTACGACGGGATT
0.0162 KA relative to UGCAUGU

Item CCUAGUG (DNA:RNA) RNA: GGGAGACCGGAAUUCAGAUUGUCCCCUAGUGUUAAAUCCCGUCGUAGCCACCA DNA 1: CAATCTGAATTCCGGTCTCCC DNA 2: TGGTGGCTACGACGGGATT has what recorded binding signal?
0.00931 KA relative to UGCAUGU

For the binder GGUGGAA (DNA:RNA) RNA: GGGAGACCGGAAUUCAGAUUGUCCGGUGGAAUUAAAUCCCGUCGUAGCCACCA DNA 1: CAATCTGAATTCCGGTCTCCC DNA 2: TGGTGGCTACGACGGGATT , what binding signal is on record?
0.00994 KA relative to UGCAUGU

Please give the measured binding signal for this binder: UCUUGAA (DNA:RNA) RNA: GGGAGACCGGAAUUCAGAUUGUCCUCUUGAAUUAAAUCCCGUCGUAGCCACCA DNA 1: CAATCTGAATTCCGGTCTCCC DNA 2: TGGTGGCTACGACGGGATT
0.0145 KA relative to UGCAUGU
